// provenance: PubChem BioAssay AID1963860

Below, each of the compounds is paired with its reported IC50 value.
Test system: CN0375-F725-PDC KRAS spheroid viability
Experiment: Anticancer human tumor CN0375-F725-PDC patient-derived colon carcinoma cell line growth inhibition [KRAS2]
Conditions: curve of first compound; second compound 10 µM; spheroids with HUVEC and MSC
property.label: IC50

Cn1ncnc1[C@H]1c2n[nH]c(=O)c3cc(F)cc(c23)N[C@@H]1c1ccc(F)cc1 + C=CC(=O)N1CCN(c2nc(=O)n(-c3c(C)ccnc3C(C)C)c3nc(-c4c(O)cccc4F)c(F)cc23)C(C)C1: > 100 nM
CCNC(=O)CC1N=C(c2ccc(Cl)cc2)c2cc(OC)ccc2-n2c(C)nnc21 (configuration not stated) + COc1cc2nc(C)nc(NC(C)c3cc(N)cc(C(F)(F)F)c3)c2cc1OC1CCOC1: < 31.6 nM
CCNC(=O)CC1N=C(c2ccc(Cl)cc2)c2cc(OC)ccc2-n2c(C)nnc21 (configuration not stated) + CNCc1ccccc1-c1csc(C(C)Nc2nc(C)nc3cc(OC)c(OC)cc23)c1: < 31.6 nM
COc1cc2nccc(Oc3ccc(NC(=O)C4(C(=O)Nc5ccc(F)cc5)CC4)cc3)c2cc1OC + CC1OCC2(CCN(c3cnc(Sc4ccnc(N)c4Cl)c(N)n3)CC2)C1N: 644 nM
CC1OCC2(CCN(c3cnc(Sc4ccnc(N)c4Cl)c(N)n3)CC2)C1N (configuration not stated) + C=CC(=O)N1CCN(c2nc(=O)n(-c3c(C)ccnc3C(C)C)c3nc(-c4c(O)cccc4F)c(F)cc23)C(C)C1: > 10000 nM
CC1COCCN1c1cc(-c2ccnn2C)c2ccnc(-c3ccn[nH]3)c2n1 (configuration not stated) + CNCc1ccccc1-c1csc(C(C)Nc2nc(C)nc3cc(OC)c(OC)cc23)c1: < 10 nM
CC(=O)Nc1cccc(-n2c(=O)n(C3CC3)c(=O)c3c(Nc4ccc(I)cc4F)n(C)c(=O)c(C)c32)c1 + CNCc1ccccc1-c1csc(C(C)Nc2nc(C)nc3cc(OC)c(OC)cc23)c1: < 0.1 nM

====

System: CN0375-F725-PDC KRAS spheroid viability
Experiment: Anticancer human tumor CN0375-F725-PDC cell line growth inhibition [KRAS2];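 also: spheroids exposed to agents for 7 days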
Conditions: second compound 0.0316 µM; first compound 0.1 µM; stronger effect = lower value; spheroids with HUVEC and MSC
From the text: Multicellular complex tumor spheroid response to RAS pathway inhibitors in combination with a targeted agents in patient-derived cell lines with oncogenic KRAS variants from multiple cancer types A high-throughput screen of multi-cell type tumor spheroids was designed to identify active combinations of targeted small molecules and KRAS pathway inhibitors. […] Compounds. […] If the clinical Cmax for an agent had not been determined, the highest concentration tested was 10 microM. […]
Below, each of the compounds is paired with its reported viability, T/C value.
property.label: viability, T/C

CC1COCCN1c1cc(-c2ccnn2C)c2ccnc(-c3ccn[nH]3)c2n1 (stereo not drawn) + C=CC(=O)N1CCN(c2nc(OCC3CCCN3C)nc3c2CCN(c2cccc4cccc(C)c24)C3)CC1CC#N: 84.8%
CC1OCC2(CCN(c3cnc(Sc4ccnc(N)c4Cl)c(N)n3)CC2)C1N (stereo not drawn) + C=CC(=O)N1CCN(c2nc(OCC3CCCN3C)nc3c2CCN(c2cccc4cccc(C)c24)C3)CC1CC#N: 90.6%
COc1cc(Nc2ncc3c(n2)-c2ccc(Cl)cc2C(c2c(F)cccc2OC)=NC3)ccc1C(=O)O + C=CC(=O)N1CCN(c2nc(OCC3CCCN3C)nc3c2CCN(c2cccc4cccc(C)c24)C3)CC1CC#N: 108%
